Quick list: EC50 pSTAT5, CD4 Naive per entry.
Biological target: T1, IL-7 receptor (IL-7Rα/γc heterodimer) on primary human T cells (human, UniProt P16871 21-459; P31785 23-369)
T1 sequence (looked up) 1: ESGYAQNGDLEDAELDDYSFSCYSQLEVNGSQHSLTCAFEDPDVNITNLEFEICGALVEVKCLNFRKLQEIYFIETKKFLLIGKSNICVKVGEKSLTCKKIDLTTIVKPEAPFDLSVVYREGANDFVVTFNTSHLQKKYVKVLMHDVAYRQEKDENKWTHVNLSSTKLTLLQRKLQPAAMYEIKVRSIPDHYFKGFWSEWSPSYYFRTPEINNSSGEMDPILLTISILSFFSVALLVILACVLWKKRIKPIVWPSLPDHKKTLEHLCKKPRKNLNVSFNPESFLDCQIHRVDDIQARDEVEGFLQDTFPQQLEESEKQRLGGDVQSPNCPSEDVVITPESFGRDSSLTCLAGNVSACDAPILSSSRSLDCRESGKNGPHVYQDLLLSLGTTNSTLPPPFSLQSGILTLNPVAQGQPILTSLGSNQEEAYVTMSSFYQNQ
T1 sequence (looked up) 2: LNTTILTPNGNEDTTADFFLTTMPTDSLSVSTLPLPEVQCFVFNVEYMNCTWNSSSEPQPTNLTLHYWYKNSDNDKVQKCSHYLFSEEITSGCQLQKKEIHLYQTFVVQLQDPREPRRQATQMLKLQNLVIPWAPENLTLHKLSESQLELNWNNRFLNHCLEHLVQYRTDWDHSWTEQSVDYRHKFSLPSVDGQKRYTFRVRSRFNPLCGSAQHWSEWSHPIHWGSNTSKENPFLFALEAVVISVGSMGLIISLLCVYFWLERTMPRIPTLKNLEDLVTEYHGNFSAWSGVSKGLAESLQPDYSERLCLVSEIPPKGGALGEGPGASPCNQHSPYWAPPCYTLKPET
Test: cell-based or functional assay
Bridges are numbered along the chain shown (N, C = ends). [ ]: non-standard residue; d: D form. glutaryl‑PEG9‑azide = glutaryl-PEG9-azide group on the N-terminal amine; L6P = lysine side chain carrying PEG6-NH2 (diglycolyl-PEG-amine); hSer = N[C@@H](CCO)C(=O)O; Nle = CCCC[C@H](N)C(=O)O
Measured Metric: EC50 pSTAT5, CD4 Naive (nM)

[
  {
    "Binder": "CMP-111, synthetic IL-7 K81(L6P), G85N of SEQ ID NO: 8 with glutaryl-PEG9-azide at the N-terminus (ligand, disulfide 34-129, 47-141, 2-92) {glutaryl‑PEG9‑azide}-DCDIEGKDGKQYESVL[Nle]VSIDQLLDS[Nle]KEIGSNCL[hSer]NEFNFFKRHICDANKEG[Nle]FLFRAARKLRQFLK[Nle]NSTGDF[hSer]LHLLK(L6P)VSENTTILLNCTGQVKGRKPAALGEAQPTKSL[hSer]ENKSLKEQKKLNDLCFLKRLLQEIKTCWNKIL[Nle]GTKEH-NH2",
    "Measured Metric": "EC50 pSTAT5, CD4 Naive",
    "Readout Number": 11.6
  },
  {
    "Binder": "CMP-201, synthetic IL-7 variant of Example 2V (ligand, disulfide 34-129, 47-141) {glutaryl‑PEG9‑azide}-DSDIEGKDGKQYESVL[Nle]VSIDQLLDS[Nle]KEIGSNCL[hSer]NEFNFFKRHICDANKEG[Nle]FLFRAARKLRQFLK[Nle]NSTGDF[hSer]LHLLKVSENTTILLNSTGQVKGRKPAALGEAQPTKSL[hSer]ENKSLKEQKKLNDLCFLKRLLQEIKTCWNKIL[Nle]GTKEH-NH2",
    "Measured Metric": "EC50 pSTAT5, CD4 Naive",
    "Readout Number": 0.8
  },
  {
    "Binder": "CMP-202, synthetic IL-7 variant of Example 2W (ligand, disulfide 34-129, 47-141) {glutaryl‑PEG9‑azide}-DSDIEGKDGKQYESVL[Nle]VSIDQLLDS[Nle]KEIGSNCL[hSer]NEFNFFKRHICDANKEG[Nle]FLFRAARKLRQFLK[Nle]NSTGDF[hSer]LHLLK(L6P)VSENTTILLNSTGQVKGRKPAALGEAQPTKSL[hSer]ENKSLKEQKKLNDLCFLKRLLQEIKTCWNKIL[Nle]GTKEH-NH2",
    "Measured Metric": "EC50 pSTAT5, CD4 Naive",
    "Readout Number": 18.9
  }
]
